Hi there, I'd appreciate the recorded pKd for every entry that follows.
- SYSTEM TESTED: hPD-1 (Sino Biological Inc., Catalog No.: 10377-H03H-B) (human) (UniProt Q15116)
- Sequence (Q15116 25-167): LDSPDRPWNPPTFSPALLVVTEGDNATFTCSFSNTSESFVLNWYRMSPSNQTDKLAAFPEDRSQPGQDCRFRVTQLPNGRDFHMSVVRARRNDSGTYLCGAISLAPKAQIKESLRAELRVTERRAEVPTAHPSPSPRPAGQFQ
- ASSAY NAME: BLI (Octet) as in Example 4, biotinylated hPD-1 on streptavidin biosensor
Schema: pKd number; meaning minus log10 of the concentration expressed in molar units.

Item CL1 VH (SEQ ID NO: 7) / CL1 VL (SEQ ID NO: 8), scFv (scFv, part only; not given: linker, domain order, tag, V domains shown, not shown: another chain or arm of the molecule; small tags and cut ends) VH: QVQLVQSGVEVKKPGASVKVSCKASGYTFTNYYMYWVRQAPGQGLEWMGGINPSNGGTNFNEKFKNRVTLTTDSSTTTAYMELKSLQFDDTAVYYCAARDYRLDMGFEFWGQGTTVTVSS VL: EIVLTQSPATLSLSPGERATLSCRASKGVSTSGYSYLHWYQQKPGQAPRLLIYLASYLESGVPARFSGSGSGTDFTLTISSLEPEDFAVYYCQHAYDLPLTFGGGTKVEIK : provide pKd
10.09

Item CL1 VH (SEQ ID NO: 7) / CL7 VL (SEQ ID NO: 40), scFv (scFv, part only; not given: linker, domain order, tag, V domains shown, not shown: another chain or arm of the molecule; small tags and cut ends) VH: QVQLVQSGVEVKKPGASVKVSCKASGYTFTNYYMYWVRQAPGQGLEWMGGINPSNGGTNFNEKFKNRVTLTTDSSTTTAYMELKSLQFDDTAVYYCAARDYRLDMGFEFWGQGTTVTVSS VL: EIVLTQSPATLSLSPGERATLSCRASKGVSTSGYSYLHWYQQKPGQAPRLLIYLASYLESGVPARFSGSGSGTDFTLTISSLEPEDFAVYYCQHSYSFPLTFGGGTKVEIK : provide pKd
9.83

Item CL1 VH (SEQ ID NO: 7) / CL9 VL (SEQ ID NO: 12), scFv (scFv, part only; not given: linker, domain order, tag, V domains shown, not shown: another chain or arm of the molecule; small tags and cut ends) VH: QVQLVQSGVEVKKPGASVKVSCKASGYTFTNYYMYWVRQAPGQGLEWMGGINPSNGGTNFNEKFKNRVTLTTDSSTTTAYMELKSLQFDDTAVYYCAARDYRLDMGFEFWGQGTTVTVSS VL: EIVLTQSPATLSLSPGERATLSCRASKGVSTSGYSYLHWYQQKPGQAPRLLIYLASYLESGVPARFSGSGSGTDFTLTISSLEPEDFAVYYCQHSYGLPVTFGGGTKVEIK : provide pKd
9.29

Item CL1 VH (SEQ ID NO: 7) / CL2 VL (SEQ ID NO: 38), scFv (scFv, part only; not given: linker, domain order, tag, V domains shown, not shown: another chain or arm of the molecule; small tags and cut ends) VH: QVQLVQSGVEVKKPGASVKVSCKASGYTFTNYYMYWVRQAPGQGLEWMGGINPSNGGTNFNEKFKNRVTLTTDSSTTTAYMELKSLQFDDTAVYYCAARDYRLDMGFEFWGQGTTVTVSS VL: EIVLTQSPATLSLSPGERATLSCRASKGVSTSGYSYLHWYQQKPGQAPRLLIYLASYLESGVPARFSGSGSGTDFTLTISSLEPEDFAVYYCQHSYGLPLTFGGGTKVEIK : provide pKd
9.35

Item CL1 VH (SEQ ID NO: 7) / CL5 VL (SEQ ID NO: 10), scFv (scFv, part only; not given: linker, domain order, tag, V domains shown, not shown: another chain or arm of the molecule; small tags and cut ends) VH: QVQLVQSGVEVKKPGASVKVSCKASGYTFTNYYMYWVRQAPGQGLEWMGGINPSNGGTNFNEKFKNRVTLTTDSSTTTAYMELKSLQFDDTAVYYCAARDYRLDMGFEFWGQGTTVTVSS VL: EIVLTQSPATLSLSPGERATLSCRASKGVSTSGYSYLHWYQQKPGQAPRLLIYLASYLESGVPARFSGSGSGTDFTLTISSLEPEDFAVYYCQHSYDLPLTFGGGTKVEIK : provide pKd
9.84
